src = patent US20200317776A1

- target-or-system: T1, human TREM2 expressed on cells (human, UniProt Q9NZC2 19-230)
- T1 construct: BW5147.G.1.4 cells stably expressing human TREM2 together with Dap12, or endogenous TREM2 of primary human myeloid cells; also called huT2 BW; hTREM2 expressing cell line
- T1 sequence: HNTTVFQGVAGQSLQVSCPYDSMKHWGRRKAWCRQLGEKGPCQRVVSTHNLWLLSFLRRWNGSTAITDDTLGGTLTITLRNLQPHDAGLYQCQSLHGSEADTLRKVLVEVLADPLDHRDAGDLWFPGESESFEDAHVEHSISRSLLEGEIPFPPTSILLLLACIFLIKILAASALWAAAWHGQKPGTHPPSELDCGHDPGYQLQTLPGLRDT
- method-summary: FACS, hTREM2 BW cells
Each record here notes measured Kd.
Answer with a number only, understood to be in nM.

binder | readout-label | reading
AL2p-2 (antibody, V domains shown, AL2p-h50 variant; Fab and IgG formats under one id) VH: QVQLVQSGAEVKKPGSSVKVSCKASGYAFSSSWMNWVRQAPGQGLEWMGRIYPGGGDTNYAQKFQGRVTITADESTSTAYMELSSLRSEDTAVYYCARLLRNQPGESYAMDYWGQGTLVTVSS VL: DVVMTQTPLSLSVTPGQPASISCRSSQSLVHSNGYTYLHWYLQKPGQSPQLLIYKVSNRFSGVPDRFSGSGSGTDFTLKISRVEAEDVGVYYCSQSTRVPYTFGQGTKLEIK | Kd | 2.2
AL2p-8 (antibody, V domains shown, Fab and IgG formats under one id) VH: QVQLVQSGAEVKKPGSSVKVSCKASGYAFSLSWMNWVRQAPGQGLEWMGRIYPGDGDTNYARKFQGRVTITADESTSTAYMELSSLRSEDTAVYYCARLLRNQPGSSYAMDYWGQGTLVTVSS VL: GVVMTQTPLSLSVTPGQPASISCRSSQSLIHSNGYTYLHWYLQKPGQSPQLLIYKVSNRRSGVPDRFSGSGSGTDFTLKISRVEAEDVGVYYCSQSTRVPYTFGQGTKLEIK | Kd | 1.2
AL2p-50 (antibody, V domains shown, Fab and IgG formats under one id) VH: QVQLVQSGAEVKKPGSSVKVSCKASGYAFSSHWMNWVRQAPGQGLEWMGRIYPGEGDTNYAQKFHGRVTITADESTSTAYMELSSLRSEDTAVYYCARLLRNQPGESYAMDYWGQGTLVTVSS VL: DVVMTQTPLSLSVTPGQPASISCRTSQSLVHSNAYTYLHWYLQKPGQSPQLLIYKVSNRVSGVPDRFSGSGSGTDFTLKISRVEAEDVGVYYCSQSTRVPYTFGQGTKLEIK | Kd | 1.8

Input: Would you kindly share the measured Kd for AL2p-3 (antibody, V domains shown, AL2p-h50 variant; Fab and IgG formats under one id) VH: QVQLVQSGAEVKKPGSSVKVSCKASGYAFSSSWMNWVRQAPGQGLEWMGRIYPGEGDTNYAQKFQGRVTITADESTSTAYMELSSLRSEDTAVYYCARLLRNQPGESYAMDYWGQGTLVTVSS VL: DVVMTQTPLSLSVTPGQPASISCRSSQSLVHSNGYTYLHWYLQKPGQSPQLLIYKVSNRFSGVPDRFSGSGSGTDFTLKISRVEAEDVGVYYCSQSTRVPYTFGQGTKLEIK ?
Output: 2.3

Input: Would you kindly share the measured Kd for AL2p-h50 (antibody, human IgG1, V domains shown, humanized, human IgG1; Fab and IgG formats under one id) VH: QVQLVQSGAEVKKPGSSVKVSCKASGYAFSSSWMNWVRQAPGQGLEWMGRIYPGDGDTNYAQKFQGRVTITADESTSTAYMELSSLRSEDTAVYYCARLLRNQPGESYAMDYWGQGTLVTVSS VL: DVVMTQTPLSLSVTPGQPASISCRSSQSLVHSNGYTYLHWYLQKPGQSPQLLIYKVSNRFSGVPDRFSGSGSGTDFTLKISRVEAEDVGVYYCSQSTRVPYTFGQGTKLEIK ?
Output: 3.7
